Assign % binding (EMAX) compared to WT MET to each entry below.
# test_target: human MET ECD mutant D (mutations 1, 2) (human) (UniProt P08581)
# procedure_summary: ELISA, MET ECD in solid phase, mAb 0-50 nM
Answer with a number only, understood to be in % WT MET ECD.

Asked: Need % binding (EMAX) compared to WT MET of 71D4 chimeric llama-human IgG1 mAb (antibody, V domains shown, llama VH on human IgG1 CH1-CH2-CH3, llama VL on human lambda CL) VH: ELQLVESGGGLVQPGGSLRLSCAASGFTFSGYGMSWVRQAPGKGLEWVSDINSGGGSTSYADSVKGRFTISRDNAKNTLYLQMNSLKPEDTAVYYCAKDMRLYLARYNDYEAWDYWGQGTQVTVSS VL: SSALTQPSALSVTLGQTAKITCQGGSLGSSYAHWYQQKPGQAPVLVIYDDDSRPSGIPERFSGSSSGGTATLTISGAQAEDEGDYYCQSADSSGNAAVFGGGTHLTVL , thanks.
Given back: 120

Asked: Same question, 71A3 chimeric llama-human IgG1 mAb (antibody, V domains shown, llama VH on human IgG1 CH1-CH2-CH3, llama VL on human lambda CL) VH: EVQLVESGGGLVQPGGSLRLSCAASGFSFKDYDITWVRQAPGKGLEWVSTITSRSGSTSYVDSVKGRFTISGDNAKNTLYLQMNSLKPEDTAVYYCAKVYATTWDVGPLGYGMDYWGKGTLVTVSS VL: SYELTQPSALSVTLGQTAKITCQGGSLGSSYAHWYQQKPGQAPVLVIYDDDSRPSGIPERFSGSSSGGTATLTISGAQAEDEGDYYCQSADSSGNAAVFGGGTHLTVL this time
Given back: 128

Asked: Same question, 71D6 chimeric llama-human IgG1 mAb (antibody, V domains shown, llama VH on human IgG1 CH1-CH2-CH3, llama VL on human lambda CL) VH: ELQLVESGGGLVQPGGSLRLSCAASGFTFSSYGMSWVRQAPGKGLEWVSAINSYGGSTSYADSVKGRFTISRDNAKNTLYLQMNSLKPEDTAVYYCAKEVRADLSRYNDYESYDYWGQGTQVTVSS VL: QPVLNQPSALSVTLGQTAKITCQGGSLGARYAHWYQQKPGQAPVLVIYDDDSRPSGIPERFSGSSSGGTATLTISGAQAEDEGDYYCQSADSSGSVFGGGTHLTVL this time
Given back: 128

Provenance of the data: patent US20210087281A1
